Entry source: patent US8415376B2

- Assay target: PI3Kα (Homo sapiens, UniProt P42336)
- Construct: Full length p110 subunits of PI3K α, β and δ, N-terminally labeled with polyHis tag; polyHis (N); made in house; host or cells: Sf9 insect cells (baculovirus)
- Sequence (P42336 whole entry): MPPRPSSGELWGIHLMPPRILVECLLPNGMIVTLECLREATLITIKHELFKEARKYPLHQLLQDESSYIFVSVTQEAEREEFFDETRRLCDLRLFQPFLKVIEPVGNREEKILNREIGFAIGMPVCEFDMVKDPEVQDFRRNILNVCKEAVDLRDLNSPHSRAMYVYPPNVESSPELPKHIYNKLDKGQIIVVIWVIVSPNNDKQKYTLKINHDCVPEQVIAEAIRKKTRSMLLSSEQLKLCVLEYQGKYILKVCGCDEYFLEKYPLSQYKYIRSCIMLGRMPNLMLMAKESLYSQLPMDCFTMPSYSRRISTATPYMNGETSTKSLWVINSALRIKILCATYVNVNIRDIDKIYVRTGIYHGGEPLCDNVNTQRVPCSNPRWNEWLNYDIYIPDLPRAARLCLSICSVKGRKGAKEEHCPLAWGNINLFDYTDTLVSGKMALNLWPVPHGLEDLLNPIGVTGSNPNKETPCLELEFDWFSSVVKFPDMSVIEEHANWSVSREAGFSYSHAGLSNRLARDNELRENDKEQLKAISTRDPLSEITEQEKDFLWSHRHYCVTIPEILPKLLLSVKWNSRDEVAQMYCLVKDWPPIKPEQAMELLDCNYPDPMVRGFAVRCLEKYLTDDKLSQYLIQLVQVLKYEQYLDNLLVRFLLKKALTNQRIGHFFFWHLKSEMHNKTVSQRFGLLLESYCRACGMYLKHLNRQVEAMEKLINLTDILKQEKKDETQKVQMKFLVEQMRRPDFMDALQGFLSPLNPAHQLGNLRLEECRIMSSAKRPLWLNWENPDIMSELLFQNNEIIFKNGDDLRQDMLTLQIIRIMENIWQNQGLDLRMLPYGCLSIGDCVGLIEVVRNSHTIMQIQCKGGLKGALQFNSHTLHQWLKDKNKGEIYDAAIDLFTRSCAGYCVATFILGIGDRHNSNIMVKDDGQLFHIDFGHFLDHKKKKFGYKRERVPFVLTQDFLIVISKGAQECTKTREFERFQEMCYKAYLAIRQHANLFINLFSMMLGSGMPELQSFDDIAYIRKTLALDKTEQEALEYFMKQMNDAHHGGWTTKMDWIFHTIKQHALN
- Sequence (P27986 whole entry partner): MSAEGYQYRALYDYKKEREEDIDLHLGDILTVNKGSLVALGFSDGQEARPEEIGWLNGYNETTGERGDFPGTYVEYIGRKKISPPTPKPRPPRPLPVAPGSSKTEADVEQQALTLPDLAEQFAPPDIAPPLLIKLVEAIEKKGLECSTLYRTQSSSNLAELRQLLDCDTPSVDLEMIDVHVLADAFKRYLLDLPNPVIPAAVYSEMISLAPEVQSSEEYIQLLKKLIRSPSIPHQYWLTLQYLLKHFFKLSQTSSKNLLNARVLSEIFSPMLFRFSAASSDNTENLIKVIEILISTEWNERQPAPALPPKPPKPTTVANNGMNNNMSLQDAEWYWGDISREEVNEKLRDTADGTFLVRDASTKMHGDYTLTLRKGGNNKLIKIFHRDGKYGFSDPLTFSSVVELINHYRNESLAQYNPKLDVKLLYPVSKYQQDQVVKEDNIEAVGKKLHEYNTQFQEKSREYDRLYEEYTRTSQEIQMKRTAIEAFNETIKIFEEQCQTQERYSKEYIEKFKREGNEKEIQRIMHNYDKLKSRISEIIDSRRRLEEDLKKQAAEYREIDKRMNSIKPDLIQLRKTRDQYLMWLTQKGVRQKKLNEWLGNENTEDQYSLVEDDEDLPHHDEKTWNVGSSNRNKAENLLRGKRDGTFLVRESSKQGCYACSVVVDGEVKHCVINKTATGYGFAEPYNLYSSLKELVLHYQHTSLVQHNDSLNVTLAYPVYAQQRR
- Procedure summary: In vitro PI3 kinase enzyme assay (PI3K ATP loss), alpha
- Type: biochemical
- Experimental parameters: average if run more than once; read-out: ATP Loss (PBKα) IC50 μM (Avg)
Please go through the items and note down their IC50.
Remember to put the unit after the number in your answer.

[
  {
    "Compound smiles": "O=S(=O)(Nc1cc(-c2ccc3ncccc3c2)cnc1Cl)c1ccc(F)cc1",
    "Assay target": "PI3Kα (Homo sapiens, UniProt P42336)",
    "IC50": "0.0099 µM"
  },
  {
    "Compound smiles": "COc1ccnc2ccc(-c3cnc(Cl)c(NS(=O)(=O)c4ccc(F)cc4)c3)cc12",
    "Assay target": "PI3Kα (Homo sapiens, UniProt P42336)",
    "IC50": "0.0127 µM"
  }
]

Provide the reported IC50 of each entry below, same order.
1. COc1ccc(S(=O)(=O)Nc2cc(-c3ccc4nc(N)ccc4c3)cnc2Cl)cc1
2. CC(C)N1CCN(c2cnc3ccc(-c4cnc(Cl)c(NS(=O)(=O)c5ccc(F)cc5)c4)cc3n2)CC1
3. CC(=O)N1CCN(c2cnc3ccc(-c4cnc(Cl)c(NS(=O)(=O)c5ccc(F)cc5)c4)cc3n2)CC1

["0.136 µM", "0.0054 µM", "0.0057 µM"]
